Tested on: CAKI-1 renal
Assay: NCI tumour cell line growth inhibition, 48 h
endpoint: TGI

Field: example entries. Status: answers known.
compound	TGI
COc1ccc(N2C(=O)C(=O)C3(CCCCC3)C2=O)c(OC)c1OC	> 100 µM
COc1cc2nc3n(c(=O)c2cc1OC)CCCCC3	> 100 µM

# TGI of "C=CCn1c(=O)c(C(=O)NC(=O)OCC)cn(C2CCCCC2)c1=O" = > 100 µM

# TGI of "C=CNC(=S)n1nc(-c2ccccc2NC(=O)C(F)(F)F)c(=O)n(C(=S)NC=C)c1=S" = > 100 µM

# TGI of COc1cccc2c1C(=O)c1c(O)c3c(c(O)c1C2=O)CC(O)(C(C)=O)CC3O (configuration not stated) = 21.8 µM

# TGI of "O=C(O)c1c[nH]c2c(ccc3[nH]cc(C(=O)O)c(=O)c32)c1=O" = > 100 µM

# TGI of "Cc1cc(C)c(C(=O)/C(=C/c2ccccc2)c2ccccc2)c(C)c1" = > 100 µM

----------
Listed below: TGI values for each entry.
Test system: MOLT-4 leukemia
Assay: NCI tumour cell line growth inhibition, 48 h

Field: example entries. Status: answers known.
compound	value measured
CC(=O)Nc1ccc(C(=O)n2[nH]c(C)c(/C=C3\C(=O)C=Cc4ccccc43)c2=O)cc1	> 100 µM
O=C(CC1(O)C(=O)Nc2ccc([N+](=O)[O-])cc21)c1ccc(Br)cc1 (stereo unspecified)	> 100 µM
CN(C)C1(c2cc3ccccc3s2)CCCCC1	> 100 µM
CCN(CCN(CC)C(=O)NC)C(=O)NC	> 100 µM
O=C1CCc2ccccc2O1	> 100 µM

# TGI of "COc1cc(C(=O)N(C(=O)N2CCCCC2)c2ccccc2)cc(OC)c1OC" = > 100 µM

# TGI of "CN(C)CCNC(=O)c1cccc2[nH]c(-c3ccc(Cl)cc3)nc12" = 5.5 µM

# TGI of O=C(NC(Cc1ccccc1)C(=O)CCl)OCc1ccccc1 (stereo unspecified) = 25.4 µM

----------
Tested on: RXF 393 renal
Test: NCI tumour cell line growth inhibition, 48 h
endpoint: GI50

compound	GI50
Oc1[nH]c2ccccc2c1/C=c1/ccc2c(c1)N=C(c1cc(F)cc(F)c1)N=2	8200 nM
COc1ccc2c(c1)C(=O)c1c-2c(OCCN2CCCCC2)nc2ccc(OC)cc12	1900 nM
C=CCCCC(O)c1ccc(C(O)c2cnc3ccccc3c2)o1 (stereo unspecified)	83200 nM
CS(=O)(=O)c1ccc(-c2cnc(NCc3ccco3)n3cnnc23)cc1	> 100000 nM
O=C(NC(Cc1ccccc1)C(=O)CCl)OCc1ccccc1 (stereo unspecified)	3620 nM
Cn1c(=O)c(-c2c(Cl)cccc2Cl)cc2cnc(Nc3ccc(I)cc3)nc21	2440 nM
O=C1c2ccccc2-c2ccccc2C1(Cl)Cl	1780 nM
COc1cc(-c2ccc(=O)oc2C#Cc2ccccc2)cc(OC)c1OC	945 nM
CCOC(=O)Nc1cc(-c2ccc(C)c(NS(C)(=O)=O)c2)nn2c(C)nnc12	2590 nM
Cn1cc(-c2ccc3nnc(C(F)(F)c4ccc5ncccc5c4)n3n2)cn1	25900 nM

# input for lookup
# GI50 of "O=C(Nc1ccc(Cl)cc1)c1cc2ccccc2cc1OP(=O)(O)O" = 6640 nM

----------
Test system: UO-31 renal
Test: NCI tumour cell line growth inhibition, 48 h
Listed below: GI50 values for each entry.

Field: example entries. Status: answers known.
compound	value measured
COc1ccc(Nc2ncccc2C(=O)NCc2cn(Cc3cccc(Oc4ccccc4)c3)nn2)c(OC)c1	5540 nM
Nc1nc(Cl)nc2c1ncn2C1OC(CO)C(O)C1O (stereo not drawn)	3320 nM
CCCCCCn1c2c(c3c(O)cccc31)C(=O)c1ccccc1-2	16100 nM
CNC(=O)c1cc(Oc2ccc3nc(NC(=O)Nc4cc(C(F)(F)F)cc(C(F)(F)F)c4)sc3c2)ccn1	1260 nM
O=C(c1ccccc1)c1c2n(c3c1cc(O)c1ccccc13)CCN2	16200 nM

Measured GI50 (UO-31 renal), entry "CCOC(=O)Nc1cc(-c2ccc(C)c(NS(C)(=O)=O)c2)nn2c(C)nnc12" : 697 nM

Measured GI50 (UO-31 renal), entry CCN(CC)CC(O)c1cc(-c2ccc(Cl)cc2)nc2cc(Cl)ccc12 (stereo not drawn) : 1060 nM

Measured GI50 (UO-31 renal), entry COC1/C=C/OC2(C)Oc3c(C)c(O)c4c(O)c(c(C=NOC(c5ccccc5)c5ccccc5)c(O)c4c3C2=O)NC(=O)/C(C)=C/C=C/C(C)C(O)C(C)C(O)C(C)C(OC(C)=O)C1C (stereo not drawn) : 1650 nM

----------
System: SF-295 CNS
Test: NCI tumour cell line growth inhibition, 48 h
Listed below: TGI values for each entry.

Field: example entries. Status: answers known.
compound	TGI
C[C@H]1CCC2C(CN3CCCCC3)C(=O)OC2[C@]2(C)C(=O)CC(N3CCCCC3)C12O (stereo partly drawn)	22.3 µM
O=c1[nH]c(-c2ccc([N+](=O)[O-])cc2)nc2ccc(Cl)cc12	> 100 µM
COc1ccc2nc3c([N+](=O)[O-])ccc(NCCCN(C)C)c3c(N)c2c1	2.95 µM
CCN(CCN(CC)C(=O)NC)C(=O)NC	> 100 µM
Cc1ccc(Cc2n[nH]c(=O)n2N2C(=O)c3ccccc3C2=O)cc1	> 100 µM

# input for lookup
# TGI of "O=C(NCCCc1cn[nH]c(=O)n1)c1cccc2nc3ccccc3nc12" = > 100 µM

----------
Tested on: 786-0 renal
Assay: NCI tumour cell line growth inhibition, 48 h
endpoint: TGI (µM)
All answers are understood in µM, so give the number only.

compound	target	endpoint	value measured
COc1cc(/C=C/C2=NN(c3cccc(S(=O)(=O)O)c3)C3(C2)SCC(=O)N3c2nc3ccccc3s2)cc(OC)c1OC (centres undefined)	786-0 renal	TGI	37.5
Cn1c(=O)c(-c2c(Cl)cccc2Cl)cc2cnc(Nc3ccc(I)cc3)nc21	786-0 renal	TGI	6.22

# TGI of O=C(c1cccnc1)N1N=C(c2ccc3c(c2)OCO3)CC1(O)c1cc(F)c(Cl)cc1Cl (centres undefined) = 35.2

# TGI of "Cc1nc(-n2nc(-c3ccccc3)cc2-c2ccccc2)sc1C(/C=C/c1ccc([N+](=O)[O-])cc1)=N/NC(N)=S" = 43.6

----------
Tested on: BT-549 breast
Assay: NCI tumour cell line growth inhibition, 48 h
TGI below 20 µM gives Not met; TGI at or above it gives Met.

Ask | Does the compound COc1cc(C2c3cc4c(cc3OC(NNc3ccccc3)C2C)OCO4)cc(OC)c1O (stereo not drawn) have recorded TGI that is 20 µM or more?
Reply | Met

Ask | Does the compound "Cc1cc2nc3c4cc([N+](=O)[O-])ccc4n(CCN(C)C)c3nc2cc1C" have recorded TGI that is 20 µM or more?
Reply | Not met

Ask | Does the compound "[Au+].c1c[n-]cn1.c1ccc([PH+](c2ccccc2)c2ccccc2)cc1" have recorded TGI that is 20 µM or more?
Reply | Met

Ask | Does the compound "CNC(=O)c1cc(Oc2cccc3nc(NC(=O)Nc4ccc(F)cc4F)ccc23)ccn1" have recorded TGI that is 20 µM or more?
Reply | Met

Ask | Does the compound COc1ccccc1[C@@H]1CCC2CC[C@@H](c3ccccc3OC)[N+]21Cc1ccccc1 (stereo partly drawn) have recorded TGI that is 20 µM or more?
Reply | Not met

Ask | Does the compound "CCN(CC)CCNC(=O)C(Cl)=C1C(Cl)=C(Cl)C(Cl)=C1Cl" have recorded TGI that is 20 µM or more?
Reply | Met

Ask | Does the compound "O=C1C(c2c(O)[nH]c3ccc(I)cc23)=Nc2ccccc21" have recorded TGI that is 20 µM or more?
Reply | Met

Ask | Does the compound CCC1OC(=O)CC(O)C(C)C(OC2OC(C)CC(N(C)C)C2O)C(CC=O)CC(C)C(=O)/C=C/C2(C)OC2C1C (stereo not drawn) have recorded TGI that is 20 µM or more?
Reply | Met

Ask | Does the compound "COc1cc(C(=O)N(C(=O)N2CCCCC2)c2ccccc2)cc(OC)c1OC" have recorded TGI that is 20 µM or more?
Reply | Met

Ask | Does the compound "COc1cc(OC)c(/C=C/C(=O)c2c(O)cc(OC)c(C3CCN(C)CC3)c2OC)c(OC)c1" have recorded TGI that is 20 µM or more?
Reply | Not met

Ask | Does the compound "CN(C)C1(c2cc3ccccc3s2)CCCCC1" have recorded TGI that is 20 µM or more?
Reply | Met

Ask | Does the compound "CN(C)CCCN=c1c2ccccc2n(C)c2[nH]c(=O)n(C)c(=O)c12" have recorded TGI that is 20 µM or more?
Reply | Met

Ask | Does the compound "NCCCCCCCCCn1c2c(c3ccccc3c1=O)C(=O)c1ccccc1-2" have recorded TGI that is 20 µM or more?
Reply | Not met
